Quick reference: shrunken log2 fold change of the listed items.
Tested on: Escherichia coli TOP10;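 note: peptides expressed intracellularly from a pBAD plasmid library in pooled LB shake-flask culture, induced with 0.3% L-arabinose, DNA abundance read by NGS, three biological replicates, DESeq2 with apeglm shrinkage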
Assay: shrunken log2 fold change of peptide-encoding DNA abundance (4.5 h post-induction vs induction); higher = less antimicrobial activity (less host growth inhibition)
Settings: time post-induction: 4.5 h; library: site-saturation at positions 5, 18, 19, 20

Some solved entries appear below for comparison.
>>> print(df.to_string())
           sequence_record  data_value
0  RRIRARPPRLPRPRPRPRGPPRP       0.933
1  RRIRQRPPRLPRPRPRPMGLPRP     -0.0103
2  RRIRTRPPRLPRPRPRPFRQPRP      0.0156
3  RRIRERPPRLPRPRPRPKADPRP     -0.0439
4  RRIRTRPPRLPRPRPRPTYHPRP      -0.291
5  RRIRMRPPRLPRPRPRPPGNPRP       0.475
6  RRIRVRPPRLPRPRPRPRDGPRP        1.09
7  RRIRTRPPRLPRPRPRPLLEPRP       0.024
8  RRIRTRPPRLPRPRPRPMHMPRP      -0.202
9  RRIRTRPPRLPRPRPRPPQHPRP        0.22

Exercise: # get_value(readout='shrunken log2 fold change', item= RRIRMRPPRLPRPRPRPGVIPRP )
Key: 3.26

Exercise: # get_value(readout='shrunken log2 fold change', item= RRIRVRPPRLPRPRPRPAEQPRP )
Key: 0.247

Exercise: # get_value(readout='shrunken log2 fold change', item= RRIRPRPPRLPRPRPRPGEGPRP )
Key: 0.349

Exercise: # get_value(readout='shrunken log2 fold change', item= RRIRKRPPRLPRPRPRPSPDPRP )
Key: 0.344

Exercise: # get_value(readout='shrunken log2 fold change', item= RRIRARPPRLPRPRPRPVNGPRP )
Key: -0.133

Exercise: # get_value(readout='shrunken log2 fold change', item= RRIRFRPPRLPRPRPRPQKWPRP )
Key: -0.0281

Exercise: # get_value(readout='shrunken log2 fold change', item= RRIRKRPPRLPRPRPRPRIYPRP )
Key: -0.0634

Exercise: # get_value(readout='shrunken log2 fold change', item= RRIRCRPPRLPRPRPRPIIIPRP )
Key: -0.816

Exercise: # get_value(readout='shrunken log2 fold change', item= RRIRLRPPRLPRPRPRPGWDPRP )
Key: 0.507

Exercise: # get_value(readout='shrunken log2 fold change', item= RRIRSRPPRLPRPRPRPWSEPRP )
Key: -0.196

Exercise: # get_value(readout='shrunken log2 fold change', item= RRIRMRPPRLPRPRPRPNEFPRP )
Key: 0.0287

Exercise: # get_value(readout='shrunken log2 fold change', item= RRIRCRPPRLPRPRPRPNFHPRP )
Key: -0.259

Exercise: # get_value(readout='shrunken log2 fold change', item= RRIRARPPRLPRPRPRPHQTPRP )
Key: -0.103

Exercise: # get_value(readout='shrunken log2 fold change', item= RRIRPRPPRLPRPRPRPFYQPRP )
Key: -0.142
